B1: MTMR15 (parent)
chain: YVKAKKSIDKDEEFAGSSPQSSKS

Variants of: B1
PROTOCOL_NOTES: protein stability index of a GFP-peptide fusion (GPS, HEK-293T) (PSI 1-6); higher = more stable;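 further: lentivirally expressed fusions sorted by FACS into six bins by GFP to DsRed ratio, PSI derived from sequencing read proportions per bin multiplied by bin number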
DETAILS: c terminus: a fixed tail appended
Form field: protein stability index (one value per entry).
Lab note: write the figure by itself, no unit.

• YVVAKKSIDKDEEFAGSSPQSSKS [K3V] = 3.85
• YVKAKKSIDKDEEFAGGSPQSSKS [S17G] = 3.17
• YVKAKKSIDKDECFAGSSPQSSKS [E13C] = 2.05
• YVKAKKSDDKDEEFAGSSPQSSKS [I8D] = 3.7

Exercise: Reported protein stability index for YVKAKKSIDKDEEFAGSSPQSRKS [S22R] : what is it?
Solution: 3.59

Exercise: Query: protein stability index; subject: YVKAKKSIDKDEEFAGSSPQSKKS [S22K]
Solution: 1.92

Exercise: Name the recorded protein stability index for YVKAKKSIDKDEEFAGSSNQSSKS [P19N] .
Solution: 3.09

Exercise: Quick one: protein stability index for YVKAYKSIDKDEEFAGSSPQSSKS [K5Y] ?
Solution: 2.07
